# System: SF-268 CNS
# assay: NCI tumour cell line growth inhibition, 48 h
Listing: TGI of selected compounds
reportedMetric: TGI

INSERT INTO measurements (compound, recordedvalue) VALUES
  ('O=C1CC(O)C=C1Nc1ccc(Cl)cc1 (configuration not stated)', '> 100 µM'),
  ('COC1=CC(=O)c2ccccc2C1(CCC=C(C)C)C1=NC(C)(C)CO1 (configuration not stated)', '> 100 µM'),
  ('Nc1ccn(CCOC(=O)c2ccccc2)c(=O)n1', '> 100 µM'),
  ('COc1ccc2c3c1OC1CC(O)C=CC31CCN(C)C2 (configuration not stated)', '> 91.8 µM'),
  ('CC(C)(CO)CNc1cc(=O)[nH]c(N)n1', '> 100 µM'),
  ('O=P(O)(CCP(=O)(O)c1ccccc1)c1ccccc1', '> 100 µM'),
  ('CCC(CCCN)Nc1cc(OC)cc2cccnc12 (configuration not stated)', '> 100 µM'),
  ('Cc1c2c(nn1-c1ccc(S(=O)(=O)NC(=S)Nc3ccccc3)cc1)-c1ccccc1CC2', '> 50 µM'),
  ('CCCCOC(=O)CNC(=O)OCCCCC#CC#CCCCCOC(=O)NCC(=O)OCCCC', '> 100 µM'),
  ('Oc1ccc(Cl)cc1C1=N/C(=N\CN2CCN(C/N=C3/N=C(c4cc(Cl)ccc4O)CC(c4ccccc4)N3)CC2)NC(c2ccccc2)C1 (configuration not stated)', '> 100 µM'),
  ('COc1cc(CCc2ccc(OCCN(C)C)cc2)cc(OC)c1OC', '> 100 µM'),
  ('Cn1c2c(c3ccccc31)CCN(CCCCN1CCc3c(n(C)c4ccccc34)C1=O)C2', '> 100 µM');

====

# System: TK-10 renal
# assay: NCI tumour cell line growth inhibition, 48 h
Non-standard residues stand in square brackets, D forms with d. Residues, ends and D or L forms follow the SMILES beside them. *: point of attachment. ONb = O=[N+]([O-])c1ccc(CO*)cc1; AllylGly = C=CC[CH](N)C(=O)O; Boc = CC(C)(C)OC(=O)*
reportedMetric: GI50

INSERT INTO measurements (compound, recordedvalue) VALUES
  ('O=C1NCc2ccc3c(-c4cccc(Cl)c4)c[nH]c3c21', '7120 nM'),
  ('Cc1ccc2[nH]cc(-c3nc(-c4c[nH]c5ncccc45)cs3)c2c1', '> 100000 nM'),
  ('O=C(Oc1ccc(Cl)cc1Cl)c1ccccc1Nc1ccnc(C(F)(F)F)c1', '4050 nM'),
  ('COc1cc(/C(C#N)=C/c2ccc3c(c2OC)OCO3)cc2c1OCO2', '982 nM'),
  ('N=C1C(c2nc(-c3ccc(Br)cc3)cs2)=C(O)CN1Cc1cccnc1', '2230 nM'),
  ('Cc1c2c(nn1-c1ccc(S(=O)(=O)NC(=S)Nc3ccccc3)cc1)-c1ccccc1CC2', '10000 nM'),
  ('O=[N+]([O-])C1C(c2ccccc2)C12c1ccccc1-c1ccccc12 (stereo unspecified)', '2000 nM'),
  ('Cc1ccc(CNc2c3ccccc3nc3ccccc23)cc1', '2970 nM'),
  ('C=C1C(=O)O[C@H]2[C@H]1CC/C(COC(=O)c1cc3cc(F)ccc3[nH]1)=C\CC[C@@]1(C)O[C@@H]21', '1830 nM'),
  ('O=c1oc2cc(OS(=O)(=O)c3ccc(F)cc3)ccc2c2c1CCCCC2', '> 100000 nM'),
  ('C=CCC(NC(=O)OC(C)(C)C)C(=O)NC(CCC(=O)OCc1ccc([N+](=O)[O-])cc1)C(N)=O (stereo unspecified) (Boc-[AllylGly]-Glu(ONb)-NH2; configuration not given here)', '34.3 µg/mL');

From: PubChem BioAssay (NCI)
